Origin of the recorded values: ChEMBL document CHEMBL2440072

- Assay details: Volume of distribution at steady state in rat at 0.5 mg/kg, iv and 1 mg/kg, po
- Format: ADME, organism-based
- Study conditions: in vivo, read-out: Vdss
Quantity: Vd (L/kg)

Cc1cc(F)ccc1[C@H]1C[C@H](N2CCN3C(=O)CC[C@H]3C2)CCN1C(=O)N(C)[C@H](C)c1cc(C(F)(F)F)cc(C(F)(F)F)c1
3.4
CC(=O)N1CCN([C@H]2CCN(C(=O)N(C)[C@H](C)c3cc(C(F)(F)F)cc(C(F)(F)F)c3)[C@@H](c3ccc(F)cc3C)C2)CC1
3.2
Cc1cc(F)ccc1[C@H]1C[C@@H](N2CCN3C(=O)CC[C@H]3C2)CCN1C(=O)N(C)[C@H](C)c1cc(C(F)(F)F)cc(C(F)(F)F)c1 [ORVEPITANT]
3.7
